- TESTED ON: Serine/threonine-protein kinase RIO2 (Homo sapiens, UniProt Q9BVS4)
- Sequence (Q9BVS4 whole entry): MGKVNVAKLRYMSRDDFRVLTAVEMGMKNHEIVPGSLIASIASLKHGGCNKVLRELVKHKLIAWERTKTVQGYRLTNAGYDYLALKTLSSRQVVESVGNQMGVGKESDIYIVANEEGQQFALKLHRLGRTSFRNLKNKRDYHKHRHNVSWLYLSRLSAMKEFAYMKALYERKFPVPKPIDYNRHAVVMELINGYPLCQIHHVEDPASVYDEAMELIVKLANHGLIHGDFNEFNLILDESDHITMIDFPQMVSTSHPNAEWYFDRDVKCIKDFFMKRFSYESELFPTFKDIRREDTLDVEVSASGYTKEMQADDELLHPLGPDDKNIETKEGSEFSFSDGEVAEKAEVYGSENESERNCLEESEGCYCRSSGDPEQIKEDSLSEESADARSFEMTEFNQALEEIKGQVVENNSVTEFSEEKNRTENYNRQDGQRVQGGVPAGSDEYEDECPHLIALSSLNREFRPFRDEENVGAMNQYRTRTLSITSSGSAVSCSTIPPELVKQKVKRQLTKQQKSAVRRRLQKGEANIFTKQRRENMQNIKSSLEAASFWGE
- MEASUREMENT PROTOCOL: Displacement of tracer K5 from N-terminal nanoluciferase-tagged RIOK2 (unknown origin) expressed in HEK293 cells measured after 2 hrs by NanoBRET assay
IC50 under 8 µM gets YES, anything at or over 8 µM gets NO.

Take the compound COc1ccnc(NC(=O)Cc2ccc(C)c(C)c2)c1 and say whether its IC50 is less than 8 µM.
NO

Repeat with O=C(Cc1ccc2ccccc2c1)Nc1cc(Br)ccn1
NO

Can you check Cc1ccnc(NC(=O)Cc2ccc3c(c2)OCCO3)c1 next?
NO

Same again, this time with Cc1ccnc(NC(=O)COc2ccc3ccccc3c2)c1
NO

Do the same for O=C(Cc1ccc2ccccc2c1)Nc1cc(C(F)(F)F)ccn1 please
YES

Try this compound next: Cc1ccnc(NC(=O)Cc2ccc3c(c2)OCO3)c1
NO

Others:
IC50 strictly < 8 µM for this compound? O=C(Cc1ccc2ccccc2c1)Nc1cc(Cl)ccn1
YES

Now the same for COc1ccc2cc(C(C)C(=O)Nc3cc(C)ccn3)ccc2c1 (racemic)
YES

Now the same for COc1ccnc(NC(=O)[C@@H](C)c2ccc3cc(OC)ccc3c2)c1
YES

Next record, please: CCc1ccnc(NC(=O)Cc2ccc3ccccc3c2)c1
NO

// same read-out, input: COc1ccc2cc([C@@H](C)C(=O)Nc3cc(C)ccn3)ccc2c1
YES

Same lookup for COc1ccc2cc([C@H](C)C(=O)Nc3cc(C)ccn3)ccc2c1 , please.
YES

* * *

- TESTED ON: Mitogen-activated protein kinase 10 (Homo sapiens)
- MEASUREMENT PROTOCOL: Binding affinity to full length recombinant human MAPK10 using peptide substrate incubated for 40 mins in presence of [gamma33P]ATP by radiometric scintillation analysis
ASSAY ENDPOINT: Kd

What does the data say about its Kd? Entry: Cc1ccnc(NC(=O)Cc2ccc3ccccc3c2)c1
340 nM

* * *

- TESTED ON: Glycogen synthase kinase-3 alpha (Homo sapiens)
- Sequence (P49840 whole entry): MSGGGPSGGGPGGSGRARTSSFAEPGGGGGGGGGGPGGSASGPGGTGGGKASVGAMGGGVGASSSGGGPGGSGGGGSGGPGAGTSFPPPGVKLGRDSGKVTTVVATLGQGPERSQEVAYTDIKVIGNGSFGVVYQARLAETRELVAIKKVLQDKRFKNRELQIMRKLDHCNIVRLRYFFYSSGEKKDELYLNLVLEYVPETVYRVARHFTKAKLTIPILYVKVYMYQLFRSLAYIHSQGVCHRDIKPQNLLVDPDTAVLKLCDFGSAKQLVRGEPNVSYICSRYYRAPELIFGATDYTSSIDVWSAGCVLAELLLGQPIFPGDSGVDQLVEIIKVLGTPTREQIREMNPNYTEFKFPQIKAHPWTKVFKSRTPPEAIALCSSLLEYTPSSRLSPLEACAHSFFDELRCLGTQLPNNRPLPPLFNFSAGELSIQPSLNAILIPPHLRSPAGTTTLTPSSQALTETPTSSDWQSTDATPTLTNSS
- MEASUREMENT PROTOCOL: Inhibition of recombinant human GSK3alpha S449A mutant (2 to end residues) using YRRAAVPPSPSLSR peptide as substrate incubated for 40 mins in presence of [gamma33P]ATP by radiometric scintillation analysis
ASSAY ENDPOINT: pIC50
// field semantics: pIC50 = negative decimal log of concentration (mol/L)

I'd like to know its pIC50. The compound in question is COc1ccc2cc(C(C)C(=O)Nc3cc(C)ccn3)ccc2c1 (racemic)
5.72

Do the same for O=C(Cc1ccc2ccccc2c1)Nc1cc(Cl)ccn1 please
6.07

Another compound to look at: COc1ccc2cc([C@H](C)C(=O)Nc3cc(C)ccn3)ccc2c1
5.35

Cc1ccnc(NC(=O)Cc2ccc3ccccc3c2)c1 , same question.
5.28

Further cases:
State the recorded pIC50 for this entry: COc1ccnc(NC(=O)Cc2ccc3ccccc3c2)c1
5.32

* * *

- TESTED ON: Mitogen-activated protein kinase 8 (Homo sapiens, UniProt P45983)
- Sequence (P45983 whole entry): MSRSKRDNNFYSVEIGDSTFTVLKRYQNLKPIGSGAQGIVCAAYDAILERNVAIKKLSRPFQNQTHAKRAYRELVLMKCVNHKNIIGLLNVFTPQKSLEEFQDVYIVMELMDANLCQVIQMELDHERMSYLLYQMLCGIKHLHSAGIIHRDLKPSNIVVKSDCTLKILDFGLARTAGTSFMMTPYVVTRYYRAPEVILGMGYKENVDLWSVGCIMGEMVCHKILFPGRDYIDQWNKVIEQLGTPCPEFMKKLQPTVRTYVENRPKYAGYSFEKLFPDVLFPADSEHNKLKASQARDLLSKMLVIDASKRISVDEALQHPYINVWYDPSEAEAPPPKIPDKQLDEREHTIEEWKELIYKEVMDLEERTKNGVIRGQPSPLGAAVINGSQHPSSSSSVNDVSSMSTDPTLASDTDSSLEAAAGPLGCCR
- MEASUREMENT PROTOCOL: Binding affinity to full length recombinant human MAPK8 using ATF2 as substrate incubated for 40 mins in presence of [gamma33P]ATP by radiometric scintillation analysis
ASSAY ENDPOINT: Kd (nM)
Number in nM, nothing else.

Look up Kd: Cc1ccnc(NC(=O)Cc2ccc3ccccc3c2)c1
220

* * *

- TESTED ON: Serine/threonine-protein kinase RIO2 (Homo sapiens, UniProt Q9BVS4)
- MEASUREMENT PROTOCOL: Displacement of tracer K5 from N-terminal nanoluciferase-tagged RIOK2 (unknown origin) expressed in HEK293 cells measured after 2 hrs by NanoBRET assay
// IC50 lookup, one value per entry
Report the figure in µM without appending any unit label.

Param item = COc1ccnc(NC(=O)Cc2ccc3ccccc3c2)c1 ; retrieve measured IC50.
5.2

---
Reported IC50 for COc1ccnc(NC(=O)Cc2ccc(-c3ccccc3)cc2)c1 : what is it?
7.6

* * *

Below, each entry is listed with its recorded IC50.
- TESTED ON: Mitogen-activated protein kinase 8 (Homo sapiens)
- MEASUREMENT PROTOCOL: Inhibition of full length recombinant human MAPK8 using ATF2 as substrate incubated for 40 mins in presence of [gamma33P]ATP by radiometric scintillation analysis

# count of solved cases: 3
// lookup IC50 | system=Mitogen-activated protein kinase 8 (Homo sapiens) | key= COc1ccc2cc([C@H](C)C(=O)Nc3cc(C)ccn3)ccc2c1
> 10 µM

Try this compound too: COc1ccc2cc(C(C)C(=O)Nc3cc(C)ccn3)ccc2c1 (racemic)
> 10 µM

Input Cc1ccnc(NC(=O)Cc2ccc3ccccc3c2)c1
> 10 µM

***
Hello, I am looking for reported IC50 with Mitogen-activated protein kinase 8 (Homo sapiens) for COc1ccnc(NC(=O)Cc2ccc3ccccc3c2)c1 . Could you help?
> 10 µM

Next entry: O=C(Cc1ccc2ccccc2c1)Nc1cc(Cl)ccn1
> 10 µM

* * *

- TESTED ON: Mitogen-activated protein kinase 10 (Homo sapiens, UniProt P53779)
- Sequence (P53779 whole entry): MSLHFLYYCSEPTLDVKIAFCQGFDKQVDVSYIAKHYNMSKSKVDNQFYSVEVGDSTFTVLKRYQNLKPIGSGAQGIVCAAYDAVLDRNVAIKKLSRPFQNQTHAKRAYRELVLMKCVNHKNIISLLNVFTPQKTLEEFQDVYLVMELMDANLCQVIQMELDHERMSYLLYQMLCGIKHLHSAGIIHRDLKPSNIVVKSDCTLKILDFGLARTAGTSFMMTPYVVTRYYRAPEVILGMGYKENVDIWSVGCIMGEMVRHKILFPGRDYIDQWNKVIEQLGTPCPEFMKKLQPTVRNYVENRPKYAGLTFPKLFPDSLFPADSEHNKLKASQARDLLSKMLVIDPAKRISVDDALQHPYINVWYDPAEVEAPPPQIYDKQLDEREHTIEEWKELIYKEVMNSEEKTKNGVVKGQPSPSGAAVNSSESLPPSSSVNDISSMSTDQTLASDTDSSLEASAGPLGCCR
- MEASUREMENT PROTOCOL: Inhibition of full length recombinant human MAPK10 using peptide substrate incubated for 40 mins in presence of [gamma33P]ATP by radiometric scintillation analysis
IC50 strictly less than 1000 nM = class 1. Otherwise class 0.

Strictly below 1000 nM in IC50? COc1ccnc(NC(=O)Cc2ccc3ccccc3c2)c1
class 0

New cases:
Does O=C(Cc1ccc2ccccc2c1)Nc1cc(Cl)ccn1 have IC50 strictly under 1000 nM?
class 1

Then what about the compound COc1ccc2cc(C(C)C(=O)Nc3cc(C)ccn3)ccc2c1 (racemic) ?
class 1

Ok, now COc1ccc2cc([C@H](C)C(=O)Nc3cc(C)ccn3)ccc2c1
class 0

Moving on to Cc1ccnc(NC(=O)Cc2ccc3ccccc3c2)c1
class 0

* * *

- TESTED ON: Homeodomain-interacting protein kinase 1 (Homo sapiens)
- Sequence (Q86Z02 whole entry): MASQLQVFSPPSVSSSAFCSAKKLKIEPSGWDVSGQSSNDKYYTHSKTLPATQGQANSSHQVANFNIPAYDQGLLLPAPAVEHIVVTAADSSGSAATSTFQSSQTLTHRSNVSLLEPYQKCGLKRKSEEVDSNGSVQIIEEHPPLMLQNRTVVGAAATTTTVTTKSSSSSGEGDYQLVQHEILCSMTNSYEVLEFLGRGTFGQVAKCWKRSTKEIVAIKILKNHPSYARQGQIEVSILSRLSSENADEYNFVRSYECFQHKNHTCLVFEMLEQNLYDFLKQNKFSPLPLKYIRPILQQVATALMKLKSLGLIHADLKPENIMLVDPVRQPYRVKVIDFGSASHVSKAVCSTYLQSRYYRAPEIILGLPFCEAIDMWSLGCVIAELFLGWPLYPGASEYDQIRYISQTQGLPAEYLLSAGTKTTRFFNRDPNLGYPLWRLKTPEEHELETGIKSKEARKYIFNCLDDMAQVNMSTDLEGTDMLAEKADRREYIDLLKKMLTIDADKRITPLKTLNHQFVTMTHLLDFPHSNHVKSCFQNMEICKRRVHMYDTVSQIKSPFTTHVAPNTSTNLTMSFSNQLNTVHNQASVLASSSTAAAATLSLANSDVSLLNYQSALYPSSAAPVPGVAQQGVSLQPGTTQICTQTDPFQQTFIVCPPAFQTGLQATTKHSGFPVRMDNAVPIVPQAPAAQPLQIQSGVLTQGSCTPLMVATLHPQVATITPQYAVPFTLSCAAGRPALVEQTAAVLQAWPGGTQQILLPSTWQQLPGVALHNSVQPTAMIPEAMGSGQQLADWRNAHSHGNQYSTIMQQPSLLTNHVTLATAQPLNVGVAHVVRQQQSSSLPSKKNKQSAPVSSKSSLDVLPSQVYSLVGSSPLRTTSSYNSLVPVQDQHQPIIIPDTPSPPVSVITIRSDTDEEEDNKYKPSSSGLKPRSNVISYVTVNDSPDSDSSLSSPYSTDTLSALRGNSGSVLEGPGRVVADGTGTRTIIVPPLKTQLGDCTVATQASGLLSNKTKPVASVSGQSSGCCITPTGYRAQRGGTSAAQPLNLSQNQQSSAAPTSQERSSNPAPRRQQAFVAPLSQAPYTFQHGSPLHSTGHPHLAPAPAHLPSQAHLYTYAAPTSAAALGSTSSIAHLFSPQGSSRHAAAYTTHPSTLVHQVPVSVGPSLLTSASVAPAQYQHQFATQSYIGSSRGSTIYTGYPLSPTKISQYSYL
ASSAY ENDPOINT: Kd (nM)
Give the number; nM is assumed, so skip it.

Need Kd of Cc1ccnc(NC(=O)Cc2ccc3ccccc3c2)c1 , thanks.
1100

Source of measurements: ChEMBL document CHEMBL4680068
